- EXPERIMENT DESCRIPTION: CCTE_Deisenroth_AIME_384WELL_CTox_Inactive: Cytotoxicity Assessment (CTOX) in CCTE's 384-well Estrogen Receptor Transactivation Assay without AIME metabolic competence (metabolism negative), Deisenroth Lab (AID 2284039);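 also: cell viability via live-cell protease substrate cleaved to fluorescent probe; cells exposed 24 h to medium preincubated 2 h with alginate-water beads without S9; loss of fluorescence signal means loss of viability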
Inconclusive results are not listed. Active and inactive are the calls of the source. The calls were made as follows: active = hit-call score of the fitted dose curve at least 0.9, where 1 is the maximum; inconclusive = response in the unintended direction; inactive = score below 0.9.
Outcome codes: YES (active), NO (inactive)

SMILES INPUT	ASSIGNED CATEGORY
O=C(O)Cn1c(=O)n(Cc2ccc(Br)cc2F)c(=O)c2ccc(Cl)cc21	NO
CC1(C)NC(=O)N(c2ccc([N+](=O)[O-])c(C(F)(F)F)c2)C1=O	NO
CO[C@H]1/C=C/O[C@@]2(C)Oc3c(C)c(O)c4c(O)c(c(/C=N/N5CCN(C)CC5)c(O)c4c3C2=O)NC(=O)/C(C)=C\C=C\[C@H](C)[C@H](O)[C@@H](C)[C@@H](O)[C@@H](C)[C@H](OC(C)=O)[C@@H]1C	YES
CCN(CC)C(=O)c1cc(S(=O)(=O)Cc2ccccc2)c(N2CCC(c3ccccc3)CC2)cc1N(CC)CCN(C)C	NO
CC[C@H](NC(=O)c1cc(F)ccc1NS(=O)(=O)c1cccc2cccnc12)c1ccccc1	NO
